Listed here: items and their measured MIC.
Test system: Providencia rettgeri S-121
Experiment: Microbroth dilution (MHB) method, NCCLS M7-A2
Format: cell-based
Conditions: Providencia rettgeri, S121, Pr S-121, inoculum 5 x 10^5 cfu/ml, 35 °C/18 hr, read-out: MIC
RECORDED ENDPOINT: MIC

[[record]]
molecule = "CCn1cc(C(=O)O)c(=O)c2cc(F)c(N3CCNCC3)cc21 [MFLX, Norfloxacin, reference compound]"
result = "1 µg/mL"

[[record]]
molecule = "COc1c(N2CCC(n3ccnn3)C2)c(F)cc2c(=O)c(C(=O)O)cn(C3CC3)c12 (stereo not drawn)"
result = "0.12 µg/mL"

[[record]]
molecule = "Cc1cn(C2CCN(c3c(F)cc4c(=O)c(C(=O)O)cn5c4c3OC[C@@H]5C)C2)nn1 (single isomer, unassigned; (-))"
result = "1 µg/mL"

[[record]]
molecule = "NCc1cnnn1C1CCN(c2c(F)cc3c(=O)c(C(=O)O)cn(C4CC4)c3c2F)C1 (stereo not drawn)"
result = "1 µg/mL"

[[record]]
molecule = "Cc1cn(C2CCN(c3c(F)cc4c(=O)c(C(=O)O)cn(C5CC5)c4c3F)C2)nn1 (stereo not drawn)"
result = "2 µg/mL"

[[record]]
molecule = "COc1c(N2CCC(n3cncn3)C2)c(F)cc2c(=O)c(C(=O)O)cn(C3CC3)c12 (stereo not drawn)"
result = "0.5 µg/mL"

